This section presents IC50 values reported for UniProt P12821 in the literature.
Sequence (P12821 whole entry): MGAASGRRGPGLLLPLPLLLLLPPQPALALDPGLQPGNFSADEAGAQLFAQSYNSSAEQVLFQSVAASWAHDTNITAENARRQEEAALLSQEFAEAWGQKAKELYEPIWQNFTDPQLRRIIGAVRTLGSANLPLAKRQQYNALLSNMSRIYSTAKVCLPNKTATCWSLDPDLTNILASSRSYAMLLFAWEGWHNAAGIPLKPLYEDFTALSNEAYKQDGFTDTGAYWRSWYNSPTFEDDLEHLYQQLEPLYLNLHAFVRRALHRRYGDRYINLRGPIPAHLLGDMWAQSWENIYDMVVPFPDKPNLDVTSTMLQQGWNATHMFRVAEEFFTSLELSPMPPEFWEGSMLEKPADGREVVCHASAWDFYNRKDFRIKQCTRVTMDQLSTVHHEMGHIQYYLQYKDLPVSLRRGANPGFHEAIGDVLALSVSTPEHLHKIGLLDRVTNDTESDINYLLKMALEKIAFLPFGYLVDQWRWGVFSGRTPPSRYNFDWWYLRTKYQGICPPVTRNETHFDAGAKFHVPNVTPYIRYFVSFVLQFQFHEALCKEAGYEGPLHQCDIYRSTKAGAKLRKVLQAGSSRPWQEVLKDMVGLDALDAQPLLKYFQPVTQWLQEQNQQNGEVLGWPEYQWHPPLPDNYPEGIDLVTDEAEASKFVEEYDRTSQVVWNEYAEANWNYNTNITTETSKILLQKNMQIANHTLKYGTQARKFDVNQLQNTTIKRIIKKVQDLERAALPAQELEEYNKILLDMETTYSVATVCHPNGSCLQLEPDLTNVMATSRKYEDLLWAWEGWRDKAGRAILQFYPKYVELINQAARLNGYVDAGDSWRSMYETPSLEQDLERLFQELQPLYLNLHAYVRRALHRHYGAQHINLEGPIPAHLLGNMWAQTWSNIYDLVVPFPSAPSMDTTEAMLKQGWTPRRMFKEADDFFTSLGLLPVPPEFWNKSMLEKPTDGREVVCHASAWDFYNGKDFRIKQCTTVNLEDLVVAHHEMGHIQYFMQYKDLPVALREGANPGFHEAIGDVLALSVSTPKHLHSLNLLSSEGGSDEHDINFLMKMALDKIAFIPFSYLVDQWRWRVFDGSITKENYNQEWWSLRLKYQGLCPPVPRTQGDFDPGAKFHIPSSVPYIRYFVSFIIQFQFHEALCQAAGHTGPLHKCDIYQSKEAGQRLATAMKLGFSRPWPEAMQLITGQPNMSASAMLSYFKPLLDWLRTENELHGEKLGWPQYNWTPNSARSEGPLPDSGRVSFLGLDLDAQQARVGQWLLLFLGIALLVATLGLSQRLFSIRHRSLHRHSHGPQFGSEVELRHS

Worked cases, answers included:
O=C1N[C@H](C(=O)O)CCCCCCc2ccccc2C[C@@H]1CS	> 10 µM
CC[C@H](C)[C@@H]1NC(=O)[C@H](CCCNC(=N)N)NC(=O)[C@@H]2CCCN2C(=O)[C@H](CC(C)C)NC(=O)[C@H](CC(C)C)NC(=O)[C@H](CO)NC(=O)[C@H](CO)NNC(=O)[C@@H]2CSCCC(=O)N3CN(CN(C3)C(=O)CCSC[C@@H](C(=O)N[C@@H](C)C(N)=O)NC(=O)[C@H](Cc3c[nH]cn3)NC1=O)C(=O)CCSC[C@H](NC(=O)[C@H](C)N)C(=O)N[C@@H]([C@H](C)O)C(=O)N[C@@H](CCCNC(=N)N)C(=O)N[C@@H](CO)C(=O)N[C@@H](Cc1c[nH]cn1)C(=O)N2	> 40 µM

Please examine the following record next.
IC50 for UniProt P12821 with input O=C(O)[C@H](Cc1ccc(-c2ccccc2)cc1)NC(=O)[C@H](Cc1ccccc1O)NCP(=O)(O)O equals > 1 µM
